Where these numbers come from: patent US20230157952A1

measurementDescription: Effect of pH value on the stability of the solution (purity)
Format: physicochemical
measurementParameters: day 14, pH 2.0, 7% in water, 25° C.
observable: Purity(%) from day 0-14

INSERT INTO assay_data (compound, endpointunit, observedresult) VALUES
  ('CCN(CC)CCOC(=O)c1ccccc1OC(C)=O.O=C(O)/C=C\C(=O)O [A-1]', '%', 78.8),
  ('CCCCC(=O)O.CCN(CC)CCOC(=O)c1ccccc1OC(C)=O [A-4]', '%', 77.3),
  ('CC(O)C(=O)O.CCN(CC)CCOC(=O)c1ccccc1OC(C)=O [A-3]', '%', 77.0),
  ('CCN(CC)CCOC(=O)c1ccccc1OC(C)=O.O=C(O)c1ccccc1 [A-2]', '%', 79.7);
